test_target: human 11β-HSD1 (Homo sapiens)
measurement_setup: at 100 nm
property_name: Biological Test Example 2 Average % inhibition at 100 nm (%)
All answers are understood in %, so give the number only.

See these solved cases before continuing.
[[record]]
compound = "NC(=O)C12CC3CC(C1)C(OC(=O)N1CC[C@@H](NC(=O)OCc4ccccc4)C1)C(C3)C2 (single isomer, unassigned) [Example 25 Isomer 1]"
reported_result = 45.6

[[record]]
compound = "CC(C)(C)OC(=O)N1CCCC12CCN(C(=O)OC1C3CC4CC1CC(C(N)=O)(C4)C3)C2 (single isomer, unassigned) [Example 30 Isomer 1]"
reported_result = 15.9

[[record]]
compound = "CC(C)(C)OC(=O)N1CCCC12CCN(C(=O)OC1C3CC4CC1CC(C(N)=O)(C4)C3)C2 (single isomer, unassigned) [Example 30 Isomer 2]"
reported_result = 91.3

[[record]]
compound = "CC(C)OC(=O)N[C@@H]1CCN(C(=O)OC2C3CC4CC2CC(C(N)=O)(C4)C3)C1 (single isomer, unassigned) [Example 24 Isomer 1]"
reported_result = 2.0

[[record]]
compound = "N#Cc1ccc(N[C@@H]2CCN(C(=O)OC3C4CC5CC3CC(C(=O)NC3CCCCC3)(C5)C4)C2)nc1 (single isomer, unassigned) [Example 117 Isomer 2]"
reported_result = 63.1


In: # lookup: Biological Test Example 2 Average % inhibition at 100 nm of N#Cc1ccc(N[C@@H]2CCN(C(=O)OC3C4CC5CC3CC(C(=O)NC3CCCCC3)(C5)C4)C2)nc1 (single isomer, unassigned) [Example 117 Isomer 1]
Out: 17.85

In: What about this compound? CC1(NC(=O)OC(C)(C)C)CCN(C(=O)OC2C3CC4CC2CC(C(N)=O)(C4)C3)C1 (single isomer, unassigned) [Example 22 Isomer 1]
Out: 15.7

----------
molecules and their reported IC50
test_target: human 11β-HSD1 (Homo sapiens, UniProt P28845)
Sequence (P28845 whole entry): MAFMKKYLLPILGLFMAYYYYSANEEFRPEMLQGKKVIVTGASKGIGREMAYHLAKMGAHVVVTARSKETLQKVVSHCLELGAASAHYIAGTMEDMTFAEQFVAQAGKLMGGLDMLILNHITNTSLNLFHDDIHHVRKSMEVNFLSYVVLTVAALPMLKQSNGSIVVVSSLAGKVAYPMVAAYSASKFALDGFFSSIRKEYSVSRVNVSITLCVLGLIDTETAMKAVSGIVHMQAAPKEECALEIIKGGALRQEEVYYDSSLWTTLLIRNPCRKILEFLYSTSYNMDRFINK
test: biochemical
measurement_setup: Biological Test Example 2 IC50 Range, microsomes from CHO cells overexpressing human 11β-HSD1, SPA

[[record]]
molecule = "CC1(NC(=O)OC(C)(C)C)CCN(C(=O)OC2C3CC4CC2CC(C(N)=O)(C4)C3)C1 (single isomer, unassigned) [Example 22 Isomer 2.2]"
test_target = "human 11β-HSD1 (Homo sapiens, UniProt P28845)"
reported_result = "< 100 nM"

[[record]]
molecule = "O=C(O[C@H]1C2CC3CC1C[C@](O)(C3)C2)N1CC[C@@H](Nc2nc3ccc(Cl)cc3s2)C1 [Example 97]"
test_target = "human 11β-HSD1 (Homo sapiens, UniProt P28845)"
reported_result = "< 100 nM"

[[record]]
molecule = "CC(C)COC(=O)NC1CCN(C(=O)OC2C3CC4CC2CC(C(N)=O)(C4)C3)C1 (single isomer, unassigned) [Example 18 Isomer 2]"
test_target = "human 11β-HSD1 (Homo sapiens, UniProt P28845)"
reported_result = "< 100 nM"

[[record]]
molecule = "CC(C)(C)NC(=O)c1cc(Cl)cnc1N[C@@H]1CCN(C(=O)O[C@H]2C3CC4CC2C[C@](O)(C4)C3)C1 [Example 102]"
test_target = "human 11β-HSD1 (Homo sapiens, UniProt P28845)"
reported_result = "< 100 nM"

[[record]]
molecule = "CC(C)(C)OC(=O)N1CCC2CN(C(=O)OC3C4CC5CC3CC(C(N)=O)(C5)C4)CC21 (single isomer, unassigned) [Example 23 Isomer 1]"
test_target = "human 11β-HSD1 (Homo sapiens, UniProt P28845)"
reported_result = "> 100 nM"

[[record]]
molecule = "CN(C)C(=O)c1cnc(N[C@@H]2CCN(C(=O)O[C@H]3C4CC5CC3C[C@](O)(C5)C4)C2)nc1 [Example 111]"
test_target = "human 11β-HSD1 (Homo sapiens, UniProt P28845)"
reported_result = "> 100 nM"

[[record]]
molecule = "N#Cc1ccc(N[C@@H]2CCN(C(=O)OC3C4CC5CC3CC(C(=O)NC3CCCCC3)(C5)C4)C2)nc1 (single isomer, unassigned) [Example 117 Isomer 2]"
test_target = "human 11β-HSD1 (Homo sapiens, UniProt P28845)"
reported_result = "< 100 nM"

[[record]]
molecule = "NC(=O)C12CC3CC(C1)C(OC(=O)N1CC[C@@H](Nc4ccc(F)cn4)C1)C(C3)C2 (stereo partly shown) [Example 115]"
test_target = "human 11β-HSD1 (Homo sapiens, UniProt P28845)"
reported_result = "< 100 nM"


In: IC50 lookup needed for CN(c1cccc(C(F)(F)F)n1)C1CCN(C(=O)OC2C3CC4CC2CC(C(N)=O)(C4)C3)C1 (stereo not shown) [Example 45] , thanks.
Out: < 100 nM

----------
test_target: human 11β-HSD1 (Homo sapiens)
test: biochemical
measurement_setup: Biological Test Example 2 IC50 Range, microsomes from CHO cells overexpressing human 11β-HSD1, SPA
pIC50: −log10 of the molar value.
pIC50 reference

[[record]]
compound = "N#Cc1cnc(N[C@@H]2CCN(C(=O)O[C@H]3C4CC5CC3C[C@](O)(C5)C4)C2)c(Cl)c1"
reported_result = "> 7.00"

[[record]]
compound = "NC(=O)c1cnc(N[C@@H]2CCN(C(=O)O[C@H]3C4CC5CC3C[C@](O)(C5)C4)C2)c(Cl)c1"
reported_result = "> 7.00"

[[record]]
compound = "CNC(=O)c1cnc(N[C@@H]2CCN(C(=O)O[C@H]3C4CC5CC3C[C@](O)(C5)C4)C2)nc1"
reported_result = "< 7.00"

[[record]]
compound = "CC(C)(C)OC(=O)NC1(Cc2ccccc2)CCN(C(=O)OC2C3CC4CC2CC(C(N)=O)(C4)C3)C1 (single isomer, unassigned) [Example 29 Isomer 2.2]"
reported_result = "> 7.00"


In: I would be grateful if you could share the reported pIC50 for N#Cc1ccc(N[C@H]2CCN(C(=O)O[C@H]3C4CC5CC3C[C@](C(N)=O)(C5)C4)C2)nc1 .
Out: > 7.00

In: Moving on to CC(C)(C)OC(=O)N(CCO)[C@@H]1CCN(C(=O)O[C@H]2C3CC4CC2C[C@](C(N)=O)(C4)C3)C1
Out: > 7.00

In: Entry Cc1ccc(C#N)c(N[C@@H]2CCN(C(=O)O[C@H]3C4CC5CC3C[C@](O)(C5)C4)C2)n1 please
Out: > 7.00

In: What about this compound? CN(c1ncccc1C(F)(F)F)C1CCN(C(=O)O[C@H]2C3CC4CC2C[C@](C(N)=O)(C4)C3)C1 (stereo partly shown)
Out: > 7.00

In: // repeat for COC(=O)C12CC3CC(C1)C(OC(=O)N1CC[C@@H](Nc4ncccc4C#N)C1)C(C3)C2 (stereo partly shown) and report
Out: > 7.00

In: What would you report for CCOC(=O)C1(Nc2ccccc2)CCN(C(=O)NC2C3CC4CC(C3)CC2C4)CC1 (stereo not shown) ?
Out: 6.00 to 7.00

In: Let us now turn to N#Cc1ccc(N[C@@H]2CCN(C(=O)O[C@H]3C4CC5CC3C[C@](C(N)=O)(C5)C4)C2)nc1
Out: > 7.00

In: For CC1(NC(=O)OC(C)(C)C)CCN(C(=O)OC2C3CC4CC2CC(C(N)=O)(C4)C3)C1 (single isomer, unassigned) [Example 22 Isomer 2] then?
Out: > 7.00

In: Again, but for N#Cc1cccnc1N[C@@H]1CCN(C(=O)O[C@H]2C3CC4CC2C[C@](C#N)(C4)C3)C1
Out: > 7.00

In: Quick one: CN(c1ccc(C(F)(F)F)cn1)C1CCN(C(=O)O[C@H]2C3CC4CC2C[C@](C(N)=O)(C4)C3)C1 (stereo partly shown)
Out: > 7.00

In: Now give it for CC(C)OC(=O)N[C@@H]1CCN(C(=O)NC2C3CC4CC(C3)CC2C4)C1 (stereo partly shown) too.
Out: > 7.00

In: Same again, this time with CN(c1ccc(C#N)cn1)C1CCN(C(=O)O[C@H]2C3CC4CC2C[C@](C(N)=O)(C4)C3)C1 (stereo partly shown)
Out: > 7.00

----------
test_target: human 11β-HSD1 (Homo sapiens, UniProt P28845)
test: biochemical
measurement_setup: 1.5 h, read-out: Biological Test Example 2 Average % inhibition at 100 nm, at 100 nm
property_name: inhibition at 0.1 µM (%)
Field: numeric (%). Do not append units.

Look over these answered cases.
[[record]]
compound_structure_string = "N#Cc1cccnc1N[C@@H]1CCN(C(=O)O[C@H]2C3CC4CC2C[C@](C(N)=O)(C4)C3)C1"
reported_result = 94.6

[[record]]
compound_structure_string = "CN(C)C(=O)c1cnc(N[C@@H]2CCN(C(=O)O[C@H]3C4CC5CC3C[C@](O)(C5)C4)C2)nc1"
reported_result = 33.5

[[record]]
compound_structure_string = "O=C(O[C@H]1C2CC3CC1C[C@](O)(C3)C2)N1CC[C@@H](Nc2nc3ccc(Cl)cc3s2)C1"
reported_result = 91.1


In: Form field: reported inhibition at 0.1 µM of N#Cc1cccnc1N[C@@H]1CCN(C(=O)O[C@H]2C3CC4CC2C[C@](C#N)(C4)C3)C1
Out: 94.6

In: N#Cc1ccc(N[C@@H]2CCN(C(=O)O[C@H]3C4CC5CC3C[C@](C(N)=O)(C5)C4)C2)nc1 ?
Out: 101

In: Same again, this time with O=C(NC1CC1)c1cnc(N[C@@H]2CCN(C(=O)O[C@H]3C4CC5CC3C[C@](O)(C5)C4)C2)nc1
Out: 33.3

In: # repeat for CN(C(=O)c1ccc(N[C@@H]2CCN(C(=O)O[C@H]3C4CC5CC3C[C@](O)(C5)C4)C2)nc1)C(C)(C)C
Out: 21.8
